These measurements were taken from PubChem BioAssay.

- measurementNotes: RPL19A-GFP modulators, yeast TOR pathway, confirmation, cell-based, S. cerevisiae, flow cytometry, cherry picks, mother/daughter gates (AID 2270)
- conditionParameters: S. cerevisiae RPL19A-GFP strain, 3 h, measured here: mother cell gate, at 10 µM, stronger effect = lower value, 100 = same GFP as DMSO wells
measurementLabel: GFP response vs DMSO (%)

[[record]]
compound = "Brc1cc(Br)c2nc(-c3cccs3)ccc2c1"
measuredresult = 96.7

[[record]]
compound = "O=C1C(Cl)=C(N2CCN(Cc3ccccc3)CC2)C(=O)N1c1ccccc1"
measuredresult = 98.5

[[record]]
compound = "Cc1cc(OCc2ccc(C(=O)NN=C3CCCC3)cc2)ccc1Cl"
measuredresult = 96.1

[[record]]
compound = "COc1ccc(-c2nc3cc(C)ccn3c2NCC2CCCO2)cc1OC (stereo unspecified)"
measuredresult = 93.4

[[record]]
compound = "Nc1cccc(C(=O)Nc2ccccc2Cl)c1"
measuredresult = 98.9

[[record]]
compound = "O=C1CC(Sc2nnc(-c3ccccc3O)o2)C(=O)N1c1ccccc1 (stereo unspecified)"
measuredresult = 93.1


###

- measurementNotes: modulators of CIT2-GFP expression in yeast, confirmation, S. cerevisiae, GFP fusion, cherry picks, mother/daughter gates (AID 2274)
- conditionParameters: S. cerevisiae CIT2-GFP strain, flow cytometry, 3 h; at 10 µM; stronger effect = higher value
Reported GFP response, % of DMSO values for a set of compounds
measurementLabel: GFP response, % of DMSO (%)

[[record]]
compound = "CCOc1ccc(NC2=C(Cl)C(=O)N(Cc3ccccc3)C2=O)cc1"
measurementlabel = "GFP response, % of DMSO"
measureunit = "%"
measuredresult = 96.4

[[record]]
compound = "COc1ccc(S(=O)(=O)N2Cc3ccccc3CC2C(=O)O)cc1OC (stereo unspecified)"
measurementlabel = "GFP response, % of DMSO"
measureunit = "%"
measuredresult = 99.3

[[record]]
compound = "Cc1cccc(CS(=O)(=O)c2ncc(Cl)c(C(=O)NCc3ccccc3)n2)c1"
measurementlabel = "GFP response, % of DMSO"
measureunit = "%"
measuredresult = 95.2

[[record]]
compound = "CC1(C)CC(=O)C2=C(C1)OC1=C(C(=O)CC(C)(C)C1)C2c1ccc(O)cc1O"
measurementlabel = "GFP response, % of DMSO"
measureunit = "%"
measuredresult = 95.2

[[record]]
compound = "Cc1cc(=O)n(-c2ccc3ccccc3n2)[nH]1"
measurementlabel = "GFP response, % of DMSO"
measureunit = "%"
measuredresult = 112

[[record]]
compound = "CC(C)c1ccc(C2C3CSCC=C3C(C#N)=C(N)C2(C#N)C#N)cc1 (stereo unspecified)"
measurementlabel = "GFP response, % of DMSO"
measureunit = "%"
measuredresult = 99.7


###

- measurementNotes: AGP1-GFP expression modulators, hit retest, confirmation, cell-based, flow cytometry, S. cerevisiae, cherry pick set 2 (AID 2643);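 note: median GFP channel fluorescence over all cells without mother daughter split; sample median GFP divided by mean DMSO control so 100% equals DMSO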
- conditionParameters: S. cerevisiae AGP1-GFP strain, 3 h, at 10 µM, stronger effect = higher value
The other results are listed elsewhere or left out.
Reported percent response vs DMSO values for a set of compounds
measurementLabel: percent response vs DMSO (%)

[[record]]
compound = "COC(=O)C[n+]1cccc2ccccc21"
measuredresult = 105

[[record]]
compound = "CC(Oc1ccc2ccccc2c1)C(=O)NNC(=S)NC(=O)c1ccco1 (stereo unspecified)"
measuredresult = 112

[[record]]
compound = "Cc1cc(C)c2nc3nc(C)cc(C)c3c(N)c2c1"
measuredresult = 75.9

[[record]]
compound = "CCn1c(SCCC(C)C)nnc1-c1c[nH]c2ccccc12"
measuredresult = 96.7

[[record]]
compound = "CC1=C/C(=N\\OS(=O)(=O)c2ccccc2)C=CC1=O"
measuredresult = 101

[[record]]
compound = "COc1ccc2nc(N3CCN(C(=O)c4ccc([N+](=O)[O-])o4)CC3)sc2c1"
measuredresult = 87.3

[[record]]
compound = "Clc1cccc(CN2COc3c(cc(Cl)c4cccnc34)C2)c1"
measuredresult = 95.3

[[record]]
compound = "CCCCNc1c(-c2cccc(Sc3ccc(OC)cc3)c2)nc2ccccn12"
measuredresult = 90.6

[[record]]
compound = "O=C(COc1cccnc1[N+](=O)[O-])Nc1ccc(Cl)cc1F"
measuredresult = 97.4

[[record]]
compound = "COc1cccc(/C=N/Nc2ncc(C(F)(F)F)cc2Cl)c1O"
measuredresult = 86.2

[[record]]
compound = "Cc1ccc2nc(N(CCN(C)C)C(=O)C3=COCCO3)sc2c1"
measuredresult = 104

[[record]]
compound = "CCC(=C/c1sc2ccc3ccccc3c2[n+]1C)/C=C1\\Sc2ccc3ccccc3c2N1C"
measuredresult = 98.8

[[record]]
compound = "CN(Cc1ccccc1)C(=O)C(=O)c1cn(CC(=O)N2CCCC2)c2ccccc12"
measuredresult = 98.3

[[record]]
compound = "O=C(NC(=S)NC1CCS(=O)(=O)C1)c1cccc([N+](=O)[O-])c1 (stereo unspecified)"
measuredresult = 106

[[record]]
compound = "O=C(Nc1nnc(-c2ccc(Cl)cc2)o1)c1ccccc1Br"
measuredresult = 95.3

[[record]]
compound = "COc1ccc(-c2nc(CS(=O)(=O)CC(=O)NCc3cccc(Br)c3)c(C)o2)cc1"
measuredresult = 99.3

